List of Kd values.
Target: T1, recombinant human RNF43 extracellular domain (human, UniProt Q68DV7 24-197)
T1 construct: extracellular domain; also called huRNF43; human RNF43 ECD
T1 sequence (looked up): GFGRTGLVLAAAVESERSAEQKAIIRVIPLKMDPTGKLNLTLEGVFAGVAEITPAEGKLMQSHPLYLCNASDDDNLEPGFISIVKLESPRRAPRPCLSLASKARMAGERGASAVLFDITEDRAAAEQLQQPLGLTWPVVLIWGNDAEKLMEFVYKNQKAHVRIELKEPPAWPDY
Test: SPR Biacore 8K; antibody captured on Protein A; RNF43 ECD analyte; 25 C
Report the value in nM with no unit label.

RNF43-6 (antibody, V domains shown, Rabbit clone; VH/VL only) VH: QSLEESGGRLVTPGTPLTLTCTVSGFSLSAFGMNWVRQAPGKGLEWIGYISAGGSAVYPNWAEGRFTISKASTTVTLKMTSLTTEDTATYFCVRGGYVGSTNSLWGPGTLVTVSS VL: AAVLTQTPSPVSAAVGGTVSISCQSSKSVHNNNWLAWYQQKPGQPPKLLIYGASTLASGVPSRFKGSGSGTQFTLTISDVQCDDAATYYCSGGYSSIIDNGFGGGTDVVVE has a reported Kd of 10.3

More entries:
RNF43-176 (antibody, V domains shown, Rat clone; VH/VL only) VH: QVQLKESGPGLVQPSQTLSLTCTVSGFSLTSYHVSWVRQPPGKGLEWMGVIWTGGSTAYNSLLKSRLSISRDISKSQVFLKMNSLQTEDTATYYCASQYYGYTSYFDYWGQGVMVTVSS VL: DIQMTQSPVSLSASPEEIVTITCQASQDIDNWLTWYQQKPGKSPQLLIYSATSLADGIPSRFSGSRSGTQYSLKISRLQIEDTGIYYCLQRYGNPWTFGGGTKLELK has a reported Kd of 5.71

RNF43-107 (antibody, V domains shown, Rat clone; VH/VL only) VH: EVQPVESGGGLVQPGRSLKLSCPASGFTFSNYDMAWVRQAPTKGLEWVASISPSGGRTYYRDSVKGRFTISRDNSKSTLYLQMDSLRSEDTATFYCATHRYYSYFDFWGQGVMVTVSS VL: DIQMTQSPASLSASLGETISIDCRTSEDIYNNLAWYQQKSGRSPQLLISATNRLQDGVPSRFSGSGSGTQYSLKISGMQPEDEGVYFCLQGSKYPYTFGTGTKLELK has a reported Kd of 0.341

RNF43-71 (antibody, V domains shown, Rat clone; VH/VL only) VH: QVKLLQSGAALVKPGDSVKMSCKASGYTFTDHIIHWVKQSHGKSLEWIGYINPYSGSTNYNEKFKSKATLTVDRSNNTAYMEFSRLTSEDSAIYYCARKNYGGYGVMDAWGQGASVTVSS VL: DIQMTQSPSLLSASVGDRVTLSCKASQNIYKNLAWHQQKLGEAPKLLIYYANSLQTGIPSRFSGSGFGTDYTLTISSLQPEDVATYFCQQSSSGWTFGGGTKLELK has a reported Kd of 0.03

RNF43-9 (antibody, V domains shown, Rabbit clone; VH/VL only) VH: QSLEESGGDLVQPEGSLTLTCTASGFSFSSSCYMCWVRQAPGKGLEWIACINTGSSGSTYYASWAKGRFTISKTSSTTVTLQMTILTAADTATYFCARGYAGYTGYGQFNLWGPGTLVTVSS VL: QIVMTQTPASVEAAVGGTVTIKCQASQSISNYLAWYQQKPGQRPKLLIYDASKLASGVPSRFKGSGSGTQFTLTISGVECADAATYYCQQGYTMNNVDNAFGGGTEVVVK has a reported Kd of 1.8

RNF43-5 (antibody, V domains shown, Rabbit clone; VH/VL only) VH: QSVEESGGRLVTPGTPLTLTCTVSGFSLNTYAMGWVRQAPGKGLEWIGTIGSSGSTYYATWAKGRFTVSKTSTTVDLKITSPTTEDTATYFCVRGADGLNYYPIWGPGTLVTVSL VL: AQVLTQTPSSVSAAVGGTVTINCQASQSVYNNKNLAWYQQKPGQPPKLLIYDASDLASGVSSRFKGSGSGTQFTLTISGVQCDDAATYYCQGEFNCDKGDCNAFGGGTEVVVK has a reported Kd of 1.1
